The reported numbers originate from ChEMBL document CHEMBL3045370.

# TEST_METHOD_NOTES: Protective index, ratio of TD50 for neurotoxicity to ED50 for anticonvulsant activity in Mus musculus Kunming (mouse)
# Format: toxicity, organism-based
# CONDITION_DESCRIPTION: in vivo, read-out: Ratio TD50/ED50
MEASUREMENT_KIND: selectivity ratio

### Prompt Item under review: "c1ccc(COc2cccc3c2cnc2ncnn23)cc1" . Reported selectivity ratio?
### Response 9
